Hi there, I'd appreciate the recorded Population Pyknosed Nuclei (%) for every entry that follows.
- System: HEK-293T
- Procedure Summary: Multiplex assay against HEK293T
- Assay type: toxicity, cell-based
- Test Settings: human, 24 h, 10 µM, compound concentration 10 uM
Return type: number; implicit unit %.

// Population Pyknosed Nuclei (%) value for CCCCC[C@H](O)/C=C/[C@H]1[C@H](O)CC(=O)[C@@H]1CCCCCCC(=O)O : 12

// Population Pyknosed Nuclei (%) value for Oc1c(CN2CCN(c3ccccn3)CC2)cc(Cl)c2cccnc12 : 15

// Population Pyknosed Nuclei (%) value for Nc1nc(-c2ccco2)c2cnn(Cc3ccccc3F)c2n1 : 21

// Population Pyknosed Nuclei (%) value for CC[C@@H](C)Nc1nc(C)nc2c(-c3ccc(OC)nc3C)c(C)nn12 : 14
